Measured values drawn from PubChem BioAssay (NCI) for this set.

experiment: NCI Yeast Anticancer Drug Screen. Data for the mlh1 rad18 strain (AID 175); details: S. cerevisiae mlh1 rad18 strain growth inhibition; at 50.0 µM; hits give high values
Compounds without any hit were thinned out: in the full panel of roughly 79,000, 15% have a hit.
Hi there, I'd appreciate the recorded growth inhibition for every entry that follows.
Answer in %, number only, no unit symbol.

Give the measured growth inhibition for CC(=O)OCC1CCCCO1 (stereo unspecified)
-4.7

Give the measured growth inhibition for CCC(=O)OCC(C)COC(=O)CC
-5.25

Give the measured growth inhibition for CC1=C2C(C)CC3OC(=O)C(C)C3C(O)C2CC1=O (stereo unspecified)
-5.75

Give the measured growth inhibition for CCC/C=N\NS(=O)(=O)c1ccc(NC(C)=O)cc1
27.2

Give the measured growth inhibition for CC(=O)c1ccc2ccc3ccccc3c2c1O
5.25

Give the measured growth inhibition for NC(=S)c1ccc[n+](Cc2c(Cl)cccc2Cl)c1
-4.4

Give the measured growth inhibition for CCOC(=O)c1ccc(OCC)cc1O
-15.8

Give the measured growth inhibition for OC1Cn2cc(Br)c[n+]2C1 (stereo unspecified)
-13.6

Give the measured growth inhibition for O=C1OC(c2ccc([N+](=O)[O-])cc2)=N/C1=C\c1ccccc1
-11.5

Give the measured growth inhibition for CS(=O)(=O)Nc1ccc2ccccc2c1
-3.7

Give the measured growth inhibition for CC1(C)C(=O)N(c2ccccc2)C1c1ccccc1 (stereo unspecified)
-5.7

Give the measured growth inhibition for O=C1CCC2CCc3cccc1c32 (stereo unspecified)
3.05

Give the measured growth inhibition for O=c1cccc(O)[nH]1
-8.85

Give the measured growth inhibition for CN(C)C(=O)c1ccccc1
1.55

Give the measured growth inhibition for CCCCCCCCCCCCCCCc1ccc([N+](=O)[O-])c(O)c1
35.9

Give the measured growth inhibition for OCCN(CCO)c1cc(/C=C/c2cccc3ccccc23)nc2ccccc12
37.4

Give the measured growth inhibition for CC(=O)C1=C(O)C2(O)C(=O)c3c(c(C)c4ccc(C)c(O)c4c3O)CC2C(N)C1=O (stereo unspecified)
4

Give the measured growth inhibition for COC(=O)C(CC(=O)[C@H]1CC[C@H]2[C@@H]3CC=C4C[C@@H](OC(C)=O)CC[C@]4(C)[C@H]3CC[C@]12C)OC (stereo partly specified)
9

Give the measured growth inhibition for COc1ccc2ccc3c(CCN(C)C#N)cc4c(c3c2c1OC(C)=O)OCO4
0.15

Give the measured growth inhibition for CCC(=C(C#N)C#N)c1cc(OC)c(OC)c(OC)c1
-13.8

Give the measured growth inhibition for CC1CC(C)SC(C)S1 (stereo unspecified)
-14.8

Give the measured growth inhibition for COc1cc(C(=O)O)c([N+](=O)[O-])c(OC)c1OC
-7.5

Give the measured growth inhibition for Nc1ccc2[nH]cc(CCC(=O)O)c2c1
18.5

Give the measured growth inhibition for CCN(c1ccc(Br)cc1)c1ccc(Br)cc1
7.55

Give the measured growth inhibition for NC1=NN(c2ccccc2)C(=O)C1/C(=N\NC(=O)c1cc2ccccc2cc1O)C(=O)Nc1ccc(Cl)cc1 (stereo unspecified)
49.5

Give the measured growth inhibition for CCOc1ncc(C[n+]2csc(CCO)c2C)c(N)n1
-5.35
